Molecular target: HIPK4 (human) (UniProt Q8NE63)
Sequence (Q8NE63 whole entry, looked up): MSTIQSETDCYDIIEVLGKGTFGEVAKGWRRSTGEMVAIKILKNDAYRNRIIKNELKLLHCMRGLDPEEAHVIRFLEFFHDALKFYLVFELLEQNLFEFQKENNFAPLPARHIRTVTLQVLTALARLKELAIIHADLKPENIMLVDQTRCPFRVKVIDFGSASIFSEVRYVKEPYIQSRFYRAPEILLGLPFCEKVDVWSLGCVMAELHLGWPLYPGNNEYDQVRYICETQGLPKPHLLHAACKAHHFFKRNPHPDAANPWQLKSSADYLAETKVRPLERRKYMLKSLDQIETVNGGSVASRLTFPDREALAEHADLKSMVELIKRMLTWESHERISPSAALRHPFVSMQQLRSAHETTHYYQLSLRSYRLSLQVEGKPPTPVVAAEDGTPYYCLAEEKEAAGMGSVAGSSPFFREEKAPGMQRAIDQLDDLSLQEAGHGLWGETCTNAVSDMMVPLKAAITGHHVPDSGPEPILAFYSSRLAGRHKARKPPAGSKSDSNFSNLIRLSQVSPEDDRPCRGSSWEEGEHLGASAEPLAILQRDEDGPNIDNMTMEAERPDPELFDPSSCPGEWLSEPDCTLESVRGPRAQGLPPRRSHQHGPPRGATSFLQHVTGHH
Assay: radiometric filter-binding kinase assay, Kinase HotSpot
Details: compound 0.5 µM; ATP 10 µM
Please go through the items and note down their residual activity.
Give the quantity in %, number only.

[in] Return reported residual activity. Input compound: CN(C)CCCn1cc(C2=C(c3c[nH]c4ccccc34)C(=O)NC2=O)c2ccccc21
[out] 113

[in] Look up and state reported residual activity for N#C/C(=C\c1ccc(O)c(O)c1)C(=O)NCc1ccccc1
[out] 106

[in] Supply reported residual activity belonging to this compound: N#Cc1c[nH]c2c[nH]/c(=N\Cc3cccnc3)cc2/c1=N\c1ccc(F)c(Cl)c1
[out] 93.1

[in] Return value of residual activity for input O=C1NC(=O)c2c1c1c3ccccc3[nH]c1n1cncc21 , no commentary.
[out] 98.5

[in] Please look at this compound and report its residual activity: Fc1ccc(-c2nc3n(c2-c2ccncc2)CCS3)cc1
[out] 89.7

[in] # return recorded residual activity for entry CN(C)c1ccc(/C=C2\C(=O)Nc3ccccc32)cc1
[out] 98.3

[in] For the compound O=C1c2ccccc2-c2nc3nnnn3nc21 , give its measured residual activity value.
[out] 97.9

[in] Give residual activity for C[C@@H]1CCN(C(=O)CC#N)C[C@@H]1N(C)c1ncnc2[nH]ccc12
[out] 96.2

[in] Give the reported value of residual activity for this record: Cc1nc(-c2ccccc2)c(-c2ccncc2)o1
[out] 102

[in] Give residual activity for the following compound: Ic1cccc(CSc2nnc(-c3ccncc3)o2)c1
[out] 98.8

###

Molecular target: CDK6 CCND1 (human) (UniProt Q00534+P24385)
Sequence (P24385 whole entry, looked up): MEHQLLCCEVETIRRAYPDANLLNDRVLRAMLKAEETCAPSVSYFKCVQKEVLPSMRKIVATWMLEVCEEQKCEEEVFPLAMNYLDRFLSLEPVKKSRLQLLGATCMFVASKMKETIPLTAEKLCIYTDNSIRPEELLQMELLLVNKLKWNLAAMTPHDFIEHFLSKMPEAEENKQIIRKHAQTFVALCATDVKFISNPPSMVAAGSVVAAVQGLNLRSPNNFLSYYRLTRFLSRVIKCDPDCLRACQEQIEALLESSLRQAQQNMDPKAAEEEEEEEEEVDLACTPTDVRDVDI
Sequence (Q00534 whole entry, looked up): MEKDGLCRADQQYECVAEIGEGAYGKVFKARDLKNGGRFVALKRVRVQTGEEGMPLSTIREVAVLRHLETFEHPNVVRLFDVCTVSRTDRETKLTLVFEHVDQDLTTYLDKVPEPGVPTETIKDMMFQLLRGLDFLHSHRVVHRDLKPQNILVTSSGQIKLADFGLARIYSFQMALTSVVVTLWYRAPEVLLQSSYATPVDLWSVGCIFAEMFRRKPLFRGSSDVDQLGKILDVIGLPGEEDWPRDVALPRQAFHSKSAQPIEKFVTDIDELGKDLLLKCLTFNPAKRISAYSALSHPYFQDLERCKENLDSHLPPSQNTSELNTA
Assay: radiometric filter-binding kinase assay, Kinase HotSpot
Settings: compound 0.5 µM; ATP 10 µM
Please provide measured residual activity for the entries that follow.
Give just the numeric value; % need not be written.

[in] Please list residual activity recorded for the molecule COc1ccc2c(c1)c(C1=C(c3c[nH]c4ccccc34)C(=O)NC1=O)cn2CCCN(C)C
[out] 64

[in] Answer with reported residual activity of O=C1C(Cl)=C(N2C(=O)CCC2=O)C(=O)c2ccccc21
[out] 100

[in] Tell me measured residual activity for c1ccc2c(-c3ccncc3)c[nH]c2c1 please.
[out] 97.6

###

Target: NEK4 (human) (UniProt P51957)
Sequence (P51957 whole entry, looked up): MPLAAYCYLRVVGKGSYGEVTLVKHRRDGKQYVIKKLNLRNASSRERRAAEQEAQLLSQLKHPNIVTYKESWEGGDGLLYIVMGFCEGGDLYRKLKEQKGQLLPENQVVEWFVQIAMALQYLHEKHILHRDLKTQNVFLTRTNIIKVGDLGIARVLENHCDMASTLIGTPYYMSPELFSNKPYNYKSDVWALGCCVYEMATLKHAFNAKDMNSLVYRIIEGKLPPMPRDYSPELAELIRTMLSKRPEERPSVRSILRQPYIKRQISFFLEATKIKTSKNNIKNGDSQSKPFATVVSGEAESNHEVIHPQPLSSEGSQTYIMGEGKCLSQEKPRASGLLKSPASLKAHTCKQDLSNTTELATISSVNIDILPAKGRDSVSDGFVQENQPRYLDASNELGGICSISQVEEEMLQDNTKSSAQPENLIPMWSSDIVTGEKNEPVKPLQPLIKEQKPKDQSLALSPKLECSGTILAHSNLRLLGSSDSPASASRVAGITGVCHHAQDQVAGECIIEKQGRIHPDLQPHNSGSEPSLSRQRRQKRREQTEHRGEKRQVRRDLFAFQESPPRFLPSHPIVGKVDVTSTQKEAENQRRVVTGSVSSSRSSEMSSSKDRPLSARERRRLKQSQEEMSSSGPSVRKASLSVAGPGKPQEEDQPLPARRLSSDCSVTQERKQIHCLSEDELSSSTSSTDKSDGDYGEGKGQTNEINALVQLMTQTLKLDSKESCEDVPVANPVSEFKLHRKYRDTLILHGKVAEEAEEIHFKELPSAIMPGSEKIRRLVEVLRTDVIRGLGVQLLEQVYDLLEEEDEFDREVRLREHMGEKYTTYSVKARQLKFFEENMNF
Test: radiometric filter-binding kinase assay, Kinase HotSpot
Details: compound 0.5 µM; ATP 10 µM
assay-metric: residual activity (%)
Numeric only. Scale: %

[in] Report measured residual activity on NEK4 (human) (UniProt P51957); entry: Fc1ccc(-c2nc3n(c2-c2ccncc2)CCS3)cc1
[out] 93.5

[in] Enter measured residual activity, system NEK4 (human) (UniProt P51957), for the compound shown: O=C(c1cc2cc(O)ccc2[nH]1)c1cc2cc(O)ccc2[nH]1
[out] 87.6

[in] Identify measured residual activity obtained with NEK4 (human) (UniProt P51957) for CN(C)CCCn1cc(C2=C(c3c[nH]c4ccccc34)C(=O)NC2=O)c2ccccc21 .
[out] 94.3

[in] Jot down residual activity (NEK4 (human) (UniProt P51957)) of N#Cc1c[nH]c2c[nH]/c(=N\Cc3cccnc3)cc2/c1=N\c1ccc(F)c(Cl)c1 .
[out] 71.7

[in] Give residual activity for COc1ccc(C(=O)Nc2sc3c(c2C(N)=O)CCCC3)cc1OC tested on NEK4 (human) (UniProt P51957).
[out] 104

[in] Send back NEK4 (human) (UniProt P51957) residual activity of c1ccc2c(-c3ccncc3)c[nH]c2c1 only.
[out] 95.4

###

Please provide measured residual activity for the entries that follow.
Target: IKBKB (human) (UniProt O14920)
Sequence (O14920 whole entry, looked up): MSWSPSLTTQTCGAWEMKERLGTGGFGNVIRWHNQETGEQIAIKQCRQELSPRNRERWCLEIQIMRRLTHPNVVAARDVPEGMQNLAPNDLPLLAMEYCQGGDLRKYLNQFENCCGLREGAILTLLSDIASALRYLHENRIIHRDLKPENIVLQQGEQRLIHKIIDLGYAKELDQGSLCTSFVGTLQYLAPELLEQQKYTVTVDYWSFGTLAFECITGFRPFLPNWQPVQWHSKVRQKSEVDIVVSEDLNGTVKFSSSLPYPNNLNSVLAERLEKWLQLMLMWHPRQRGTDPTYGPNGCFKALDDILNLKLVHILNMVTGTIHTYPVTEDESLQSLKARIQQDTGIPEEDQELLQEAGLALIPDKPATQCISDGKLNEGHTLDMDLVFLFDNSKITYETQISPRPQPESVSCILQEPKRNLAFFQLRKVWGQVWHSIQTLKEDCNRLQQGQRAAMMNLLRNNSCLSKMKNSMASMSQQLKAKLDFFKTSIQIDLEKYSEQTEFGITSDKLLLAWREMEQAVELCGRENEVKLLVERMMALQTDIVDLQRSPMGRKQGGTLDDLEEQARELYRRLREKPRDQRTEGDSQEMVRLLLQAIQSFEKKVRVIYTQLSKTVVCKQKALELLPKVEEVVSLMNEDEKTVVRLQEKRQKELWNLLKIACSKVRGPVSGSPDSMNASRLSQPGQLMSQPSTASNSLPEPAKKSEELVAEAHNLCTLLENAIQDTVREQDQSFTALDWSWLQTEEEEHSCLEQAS
Assay: radiometric filter-binding kinase assay, Kinase HotSpot
Details: compound 0.5 µM; ATP 10 µM
Entry rule: numbers only, all in %.

[in] # return residual activity of CO[C@@H]1[C@H](N(C)C(=O)c2ccccc2)C[C@H]2O[C@]1(C)n1c3ccccc3c3c4c(c5c6ccccc6n2c5c31)C(=O)NC4 (system: IKBKB (human) (UniProt O14920))
[out] 97.9

[in] Please look at N#C/C(=C\c1ccc(O)c(O)c1)C(=O)NCc1ccccc1 and tell me its recorded residual activity on IKBKB (human) (UniProt O14920).
[out] 103

[in] GET residual activity where system = IKBKB (human) (UniProt O14920) and item = COc1ccc2c(c1)/C(=C/c1cnc[nH]1)C(O)=N2
[out] 94.9

[in] Quote IKBKB (human) (UniProt O14920) residual activity for entry N#Cc1c[nH]c2c[nH]/c(=N\Cc3cccnc3)cc2/c1=N\c1ccc(F)c(Cl)c1 .
[out] 103

[in] Using IKBKB (human) (UniProt O14920) as the test system, report measured residual activity of O=C1c2ccccc2-c2nc3nnnn3nc21 .
[out] 73.4

[in] Specify residual activity for O=C1NC(=O)c2c1c1c3ccccc3[nH]c1n1cncc21 , system IKBKB (human) (UniProt O14920).
[out] 95.9

[in] Enter residual activity (test system IKBKB (human) (UniProt O14920)) for COc1cc2ncnc(Nc3ccc(OCc4ccccc4)cc3)c2cc1OC
[out] 103

[in] GET residual activity where system = IKBKB (human) (UniProt O14920) and item = O=C(c1cc2cc(O)ccc2[nH]1)c1cc2cc(O)ccc2[nH]1
[out] 91.3

[in] Print IKBKB (human) (UniProt O14920) residual activity for O=C1C(Cl)=C(N2C(=O)CCC2=O)C(=O)c2ccccc21 .
[out] 101

[in] For IKBKB (human) (UniProt O14920), give the measured residual activity of the entry CS(=O)(=O)CCNCc1ccc(-c2ccc3ncnc(Nc4ccc(OCc5cccc(F)c5)c(Cl)c4)c3c2)o1
[out] 81

[in] State the measured residual activity (IKBKB (human) (UniProt O14920)) of NC(=O)c1cccc(-c2cc(Nc3ccc(OC(F)(F)F)cc3)ncn2)c1
[out] 98.6

[in] Fill: residual activity (IKBKB (human) (UniProt O14920)) for this molecule CC(C)(C)c1cc(C=C(C#N)C#N)cc(Br)c1O
[out] 95.7

[in] # return residual activity for Cc1nc(-c2ccccc2)c(-c2ccncc2)o1 , test system: IKBKB (human) (UniProt O14920)
[out] 105

[in] Please look at COc1ccc2c(c1)c(C1=C(c3c[nH]c4ccccc34)C(=O)NC1=O)cn2CCCN(C)C and tell me its recorded residual activity on IKBKB (human) (UniProt O14920).
[out] 99.6

[in] Provide residual activity, recorded with IKBKB (human) (UniProt O14920), of COc1ccc(Cl)cc1NC(=O)Nc1cc(C)nc2ccccc12
[out] 94.3

[in] Fetch value of residual activity on IKBKB (human) (UniProt O14920) for C[C@@H]1CCN(C(=O)CC#N)C[C@@H]1N(C)c1ncnc2[nH]ccc12 .
[out] 88.2

[in] Name the recorded residual activity of CCCCc1c(-c2ccc(OC)cc2)[nH]c2nccnc12 , assay system IKBKB (human) (UniProt O14920).
[out] 102

[in] Look up IKBKB (human) (UniProt O14920) data: residual activity of Cn1c2ccccc2c2c3c(c4c5ccccc5n(CCC#N)c4c21)CNC3=O , then report it.
[out] 90.4

[in] // output residual activity; input COc1ccc(S(=O)(=O)N(CCO)c2ccccc2CN(C)C/C=C/c2ccc(Cl)cc2)cc1 ; system IKBKB (human) (UniProt O14920)
[out] 98.1

[in] Find residual activity for Fc1ccc(-c2nc3n(c2-c2ccncc2)CCS3)cc1 on IKBKB (human) (UniProt O14920) and write it down.
[out] 105

[in] # assay system IKBKB (human) (UniProt O14920): give residual activity of c1ccc2c(-c3ccncc3)c[nH]c2c1
[out] 102

[in] # assay system IKBKB (human) (UniProt O14920): give residual activity of CN(C)CCCn1cc(C2=C(c3c[nH]c4ccccc34)C(=O)NC2=O)c2ccccc21
[out] 119

###

Can you tell me residual activity for the items I'm about to list?
Biological target: MELK (human) (UniProt Q14680)
Sequence (Q14680 whole entry, looked up): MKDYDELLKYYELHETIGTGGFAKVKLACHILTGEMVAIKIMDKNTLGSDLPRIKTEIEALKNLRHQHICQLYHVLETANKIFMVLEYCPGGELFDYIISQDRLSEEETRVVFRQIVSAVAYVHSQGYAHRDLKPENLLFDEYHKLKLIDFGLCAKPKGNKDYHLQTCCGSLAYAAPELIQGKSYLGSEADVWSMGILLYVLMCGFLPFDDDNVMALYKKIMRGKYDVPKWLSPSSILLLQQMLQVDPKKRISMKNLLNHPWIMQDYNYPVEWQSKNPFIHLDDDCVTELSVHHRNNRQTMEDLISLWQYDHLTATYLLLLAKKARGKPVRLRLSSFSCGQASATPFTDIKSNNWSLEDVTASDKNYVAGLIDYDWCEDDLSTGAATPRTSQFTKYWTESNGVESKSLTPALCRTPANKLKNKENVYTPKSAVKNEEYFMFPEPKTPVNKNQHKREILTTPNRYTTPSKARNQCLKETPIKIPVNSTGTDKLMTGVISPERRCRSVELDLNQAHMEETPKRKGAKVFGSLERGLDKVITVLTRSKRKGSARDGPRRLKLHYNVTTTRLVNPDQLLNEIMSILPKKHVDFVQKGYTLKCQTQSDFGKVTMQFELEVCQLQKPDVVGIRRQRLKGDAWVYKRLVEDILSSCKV
Assay: radiometric filter-binding kinase assay, Kinase HotSpot
Settings: compound 0.5 µM; ATP 10 µM
Answer with a number only, understood to be in %.

[in] Report residual activity for O=C1C(Cl)=C(N2C(=O)CCC2=O)C(=O)c2ccccc21
[out] 96.4

[in] Using the record for COc1ccc2c(c1)c(C1=C(c3c[nH]c4ccccc34)C(=O)NC1=O)cn2CCCN(C)C , state its measured residual activity.
[out] 70.7

[in] Provide residual activity value for the following compound: CN(C)CCCn1cc(C2=C(c3c[nH]c4ccccc34)C(=O)NC2=O)c2ccccc21
[out] 42

[in] Annotate the compound Cn1c2ccccc2c2c3c(c4c5ccccc5n(CCC#N)c4c21)CNC3=O with its measured residual activity.
[out] 21.1

[in] // Input: N#Cc1c[nH]c2c[nH]/c(=N\Cc3cccnc3)cc2/c1=N\c1ccc(F)c(Cl)c1 . Output its residual activity only.
[out] 88

[in] Quick one: give measured residual activity for C[C@@H]1CCN(C(=O)CC#N)C[C@@H]1N(C)c1ncnc2[nH]ccc12
[out] 79.4

[in] Look up residual activity of CN(C)c1ccc(/C=C2\C(=O)Nc3ccccc32)cc1 and report it.
[out] 89.3

[in] Please supply the value of reported residual activity for the item COc1ccc(C(=O)Nc2sc3c(c2C(N)=O)CCCC3)cc1OC
[out] 46

[in] Please look at this compound and report its residual activity: O=C1NC(=O)c2c1c1c3ccccc3[nH]c1n1cncc21
[out] 32.6

Reference for the values: the kinase profiling compilation of Christmann-Franck et al. (2016)
